Tested on: BDF1 mice, P388 leukemia ip, median survival T/C
Experiment: NCI In Vivo Anticancer Drug Screen. Data for tumor model P388 Leukemia (intraperitoneal) in B6D2F1 (BDF1) mice
Condition summary: endpoint: median survival time; dose: 200.0 mg/kg/injection; schedule: Q04DX003 (ip); vehicle: saline; higher = longer survival
Procedure: The antitumor activity of compounds was measured in mice bearing transplantable tumors. Survival or tumor size were measured and the results are expressed as the measurement made in the treated group (T) divided by the measurement made in the vehicle treated control group (C). The tumor model used in this assay is P388 Leukemia (intraperitoneal) in B6D2F1 (BDF1) mice
Toxic doses and inconclusive results are not listed.
Recorded endpoint: T/C

Use the examples below as a reference point.
INPUT: Tell me measured T/C for Cc1cc(NC(=O)NCc2ccc(N)cc2)ccc1S(=O)(=O)F please.
OUTPUT: 100 % of control

INPUT: Tell me measured T/C for CNC(=S)NN please.
OUTPUT: 90 % of control

INPUT: Tell me measured T/C for CC12CCC(C(N)C1=O)C2(C)C (stereo not drawn) please.
OUTPUT: 104 % of control

INPUT: Tell me measured T/C for CCOC(=O)C1CCCNC1 (stereo not drawn) please.
OUTPUT: 91 % of control

INPUT: Tell me measured T/C for O=C(O)c1ccc(S(=O)(=O)O)cc1C(=O)O please.
OUTPUT: 91 % of control

---
INPUT: Tell me measured T/C for CCCCCCCCNC(=O)C1OC(n2cnc3c(N)ncnc32)C(O)C1O (stereo not drawn) please.
OUTPUT: 105 % of control

INPUT: Tell me measured T/C for O=C(NC(CSC(c1ccccc1)(c1ccccc1)c1ccccc1)C(=O)O)OCc1ccccc1 (stereo not drawn) please.
OUTPUT: 104 % of control

INPUT: Tell me measured T/C for O=C(OCCBr)c1ccccc1[N+](=O)[O-] please.
OUTPUT: 104 % of control

* * *

System: BDF1 mice, P388 leukemia ip, median survival T/C
Experiment: NCI In Vivo Anticancer Drug Screen. Data for tumor model P388 Leukemia (intraperitoneal) in B6D2F1 (BDF1) mice
Condition summary: endpoint: median survival time; dose: 100.0 mg/kg/injection; schedule: Q01DX005 (ip); vehicle: saline with Tween-80; higher = longer survival
Inconclusive results and toxic doses are left out.
Recorded endpoint: T/C

INPUT: Tell me measured T/C for CCC(C)C(NC(=O)C(Cc1ccc(O)cc1)NC(=O)C(N)C(C)C)C(=O)NC(Cc1cnc[nH]1)C(=O)N1CCCC1C(=O)NC(Cc1ccccc1)C(=O)OC (stereo unspecified) please.
OUTPUT: 90 % of control

INPUT: Tell me measured T/C for CC(=O)Nc1ccc(OC(=O)Nc2ccc(C)c(NC(=O)Oc3ccc(NC(C)=O)cc3)c2)cc1 please.
OUTPUT: 102 % of control

* * *

Tested on: BDF1 mice, P388 leukemia ip, median survival T/C
Experiment: NCI In Vivo Anticancer Drug Screen. Data for tumor model P388 Leukemia (intraperitoneal) in B6D2F1 (BDF1) mice
Condition summary: endpoint: median survival time; dose: 100.0 mg/kg/injection; schedule: Q04DX003 (ip); vehicle: saline
Toxic doses and inconclusive results are not listed. Rule for the calls: active = survival T/C of 150% or more; inactive = T/C below 125% in these data.
API: response.call in active, inactive

Study these solved cases before continuing.
INPUT: Could you check what this test reported for COc1cc2ccc3c(c2cc1OC)CNCC3 ?
OUTPUT: inactive

INPUT: Could you check what this test reported for CC(=O)CC(C)=O.CC(=O)CC(C)=O.CC(=O)CC(C)=O.[Ga] ?
OUTPUT: inactive

INPUT: Could you check what this test reported for Nc1ccc2c(-c3ccccc3)cc(NCCCN3CCOCC3)nc2n1 ?
OUTPUT: inactive

INPUT: Could you check what this test reported for CC[n+]1ccc2cc(OC)c(OC)cc2c1Cc1ccc(OC)c(OC)c1 ?
OUTPUT: inactive

INPUT: Could you check what this test reported for NC(COc1ccccc1)Cc1ccccc1 (stereo not drawn) ?
OUTPUT: inactive

---
INPUT: Could you check what this test reported for O=C(O)CCCl ?
OUTPUT: inactive

INPUT: Could you check what this test reported for CCOC(=O)C1(c2ccccc2)CCCN(C)CC1 (stereo not drawn) ?
OUTPUT: inactive

meta.source: PubChem BioAssay AID328
